Entries below carry reported IC50 on Telomerase reverse transcriptase (Homo sapiens).
Sequence (O14746 whole entry): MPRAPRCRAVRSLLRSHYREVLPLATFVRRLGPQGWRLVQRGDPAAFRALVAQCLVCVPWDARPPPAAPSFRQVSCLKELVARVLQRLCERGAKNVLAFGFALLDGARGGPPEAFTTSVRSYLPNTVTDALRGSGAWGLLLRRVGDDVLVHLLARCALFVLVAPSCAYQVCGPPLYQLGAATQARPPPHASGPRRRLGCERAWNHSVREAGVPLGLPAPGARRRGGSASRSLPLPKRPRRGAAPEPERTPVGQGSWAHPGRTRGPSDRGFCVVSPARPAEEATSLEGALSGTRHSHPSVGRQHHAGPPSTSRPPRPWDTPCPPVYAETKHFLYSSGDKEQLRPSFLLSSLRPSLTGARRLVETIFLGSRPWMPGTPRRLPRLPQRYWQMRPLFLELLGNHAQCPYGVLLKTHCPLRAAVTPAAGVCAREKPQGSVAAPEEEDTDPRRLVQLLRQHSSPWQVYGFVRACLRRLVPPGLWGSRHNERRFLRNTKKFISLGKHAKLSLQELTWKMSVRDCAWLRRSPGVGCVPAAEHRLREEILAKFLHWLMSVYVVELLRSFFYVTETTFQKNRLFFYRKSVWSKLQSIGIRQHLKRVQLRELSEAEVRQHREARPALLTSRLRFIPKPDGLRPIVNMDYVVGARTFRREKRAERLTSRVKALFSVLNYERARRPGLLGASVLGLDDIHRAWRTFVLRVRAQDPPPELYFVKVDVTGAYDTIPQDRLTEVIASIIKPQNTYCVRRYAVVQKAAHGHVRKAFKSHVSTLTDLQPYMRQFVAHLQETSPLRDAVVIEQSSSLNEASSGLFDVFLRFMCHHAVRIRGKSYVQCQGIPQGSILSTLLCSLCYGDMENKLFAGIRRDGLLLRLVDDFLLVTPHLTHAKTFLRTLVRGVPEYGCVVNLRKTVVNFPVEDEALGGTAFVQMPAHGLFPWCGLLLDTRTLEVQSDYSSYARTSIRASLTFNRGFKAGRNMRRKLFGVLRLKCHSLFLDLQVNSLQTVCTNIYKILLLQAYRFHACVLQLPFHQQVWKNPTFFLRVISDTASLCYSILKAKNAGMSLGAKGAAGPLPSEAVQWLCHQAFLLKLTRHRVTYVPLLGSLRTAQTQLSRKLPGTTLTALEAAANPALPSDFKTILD

In the examples that follow, each entry is paired with its recorded IC50.
N#CCCOP(=O)(O)OCCCCCCCCCCCCNC(=O)Cc1cn(CCn2ccc3cc(Cl)ccc32)c2ccccc12 | > 100 µM
O=C(O)CCCCCCCCCCCNC(=O)Cc1c2n(c3ccccc13)CCn1c-2cc2ccccc21 | 62 µM
Cc1cn(CCCn2cc(CC(=O)NCCCCCCCCCCCCOP(=O)(OCCC#N)Oc3cccc(Cl)c3)c3ccccc32)c2ccccc12 (centres undefined) | > 100 µM

Next up:
get_value(item= `O=C(O)CCCCCCCCCCCNC(=O)Cc1cn(CCCn2cccc2)c2ccccc12` , readout=IC50) returns > 100 µM

* * *

Exercise: for every item that follows, state its recorded inhibition.
# SYSTEM_UNDER_TEST: Telomerase reverse transcriptase (Homo sapiens)
# PROTOCOL: Inhibition ratio of human telomerase was determined by stretch PCR assay with use of 100 uM of the ligand
Give bare numbers, in %.

Guide cases for inhibition, answers given:
O=C(O)CCCCCCCCCCCNC(=O)Cc1cn(CCOc2cccc3ccccc23)c2ccccc12 | 65
O=C(O)CCCCCCCCCCCNC(=O)Cc1cn(CCCN2CCCC2)c2ccccc12 | 13

Parameter requested: inhibition. Apply to each item below.
1. O=C(O)CCCCCCCCCCCNC(=O)Cc1cn(CCCn2cccc2)c2ccccc12
2. Cc1c2n(c3ccccc13)CCCn1c-2c(CC(=O)NCCCCCCCCCCCC(=O)O)c2ccccc21
3. O=C(O)CCCCCCCCCCCNC(=O)Cc1cn(CCCOC2CCCCC2)c2ccccc12
4. O=C(O)CCCCCCCCCCCNC(=O)Cc1cn(CCCn2ccc3ccccc32)c2ccccc12
5. O=C(O)CCCCCCCCCCCNC(=O)Cc1cn(CCn2ccc3ccccc32)c2ccccc12
6. O=C(O)CCCCCCCCCCCNC(=O)Cc1cn(CCCOc2ccccc2)c2ccccc12
7. O=C(O)CCCCCCCCCCCNC(=O)Cc1c2n(c3ccccc13)CCn1c-2cc2ccccc21

Result:
0
82
75
46
77
75
62

Dear colleague, could you send me inhibition for each of the items below? Thanks.
1. Cc1cn(CCCn2cc(CC(=O)NCCCCCCCCCCCC(=O)O)c3ccccc32)c2ccccc12
2. Cc1cn(CCn2cc(CC(=O)NCCCCCCCCCCCC(=O)O)c3ccccc32)c2ccccc12
3. O=C(O)CCCCCCCCCCCNC(=O)Cc1cn(CCOc2ccccc2)c2ccccc12

Result:
1: 100; 2: 7; 3: 0

* * *

Test system Telomerase reverse transcriptase (Homo sapiens, UniProt O14746), IC50 listed for each of the compounds.
One number for each entry, in µM.

Would you please look over these solved cases?
Cc1cn(CCCn2cc(CC(=O)NCCCCCCCCCCCCOP(=O)(O)Oc3cccc(Cl)c3)c3ccccc32)c2ccccc12 | 3.4
O=C(O)CCCCCCCCCCCNC(=O)Cc1cn(CCCOc2ccccc2)c2ccccc12 | 33

Then there is this compound:
# compound `O=C(Cc1cn(CCn2ccc3cc(Cl)ccc32)c2ccccc12)NCCCCCCCCCCCCOP(=O)(O)Oc1cccc(Cl)c1` ; its IC50 = 2.5

# credit: ChEMBL document CHEMBL1134205
